Taken from the supplement of paper PMC6555819.

Tested on: RARa:RXR (NR concentration 270 nM, RXRa partner concentration 90 nM)
Experiment: PBM binding z-score (relative to random genomic background probes); higher = stronger binding; sequences stand for … in GC…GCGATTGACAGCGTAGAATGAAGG
Classification field: true = PBM binding z-score at or over 3; false = PBM binding z-score under 3.

// known answers, use as guide
>>> df
                             seq_text  class
0  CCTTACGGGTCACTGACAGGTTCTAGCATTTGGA   true
1  TCACATAGGTAATACAGGTGAAAGTCGGCATCTA  false
2  TCTATTAGTTGATTAGGGCAACCCAAACAGCGGA  false
3  CGTCCAAGGTCAAAGGTCAGTGATGAGATGACGG   true
4  CCTACTGGGCCATCAGGTCCTTGATATCAACGTT  false

Determine whether this sequence has PBM binding z-score no lower than 3: TCTGCTAGGTCAACGATGGTCACCTAATCTGCTA
false

Can ACAGACAGGTGATGAAGGTAACGCAGGCTATCAT be said to have PBM binding z-score at or above 3?
false

Hi team, for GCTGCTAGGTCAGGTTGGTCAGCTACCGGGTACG , is the recorded PBM binding z-score at or above 3?
false

Does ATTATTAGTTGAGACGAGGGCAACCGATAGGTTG have a reported PBM binding z-score of at least 3?
false

Check the entry ACCCGGAGGACAAAGGTCAGAGCTACGCCAGTGA : does PBM binding z-score equal or exceed 3?
true

###

Test system: LXRb homodimer (NR concentration 270 nM)
Assay: PBM binding z-score (relative to random genomic background probes); higher = stronger binding; sequences stand for … in GC…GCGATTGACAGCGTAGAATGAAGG
EXPERIMENTAL ENDPOINT: PBM binding z-score
One number for each entry.

Some solved cases for reference:
>>> print(df.to_string())
                             seq_text  experimental_endpoint    value
0  AGTCAAAATTCATCTAGGTAACGTAAGATATGCT    PBM binding z-score   -0.222
1  TCATATAGGTAAAGAGGTGAAAGTCCGTAAGTTA    PBM binding z-score  -0.0509
2  CGTCCAAGGTCAGAGAGATCAGTGAATGCCGAGT    PBM binding z-score   0.0679
3  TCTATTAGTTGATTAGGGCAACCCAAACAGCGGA    PBM binding z-score    0.771
4  GCTCGGAGGACAAGGTCAGTGCTTTGTCCGTAGA    PBM binding z-score    -0.53
5  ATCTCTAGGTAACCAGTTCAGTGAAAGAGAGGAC    PBM binding z-score        1
6  TAGCCTAGGTCAGATCGGGACAGTATACGCTATA    PBM binding z-score   -0.146
7  CTCGAAAGGTCGGTTGAGGGGAGTATACGGATAA    PBM binding z-score    0.377
8  GCATATAGGTAATACAAGGTGAAAGCCCGATTGT    PBM binding z-score   -0.242
9  CCTAGTTGGTCAAGGTCAGACACGCTATAGGTAC    PBM binding z-score    0.541

Look up PBM binding z-score for the entries below, preserving their order.
1. GCTGCTAGGTCAACTGATGGTCAGATAAAGCTCG
2. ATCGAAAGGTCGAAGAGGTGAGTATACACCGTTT
3. GCTAGCAGGCCATTTGGGTCAGTCAATGACGGGC
4. TCTAGTTGGTCCAAGGTCACACACTCGAAATGCG
5. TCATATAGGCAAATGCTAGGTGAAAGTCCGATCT

1: 0.348; 2: 0.443; 3: -1.6; 4: 0.734; 5: -0.278

###

Tested on: PXR homodimer (NR concentration 270 nM)
Test: PBM binding z-score (relative to random genomic background probes); higher = stronger binding; sequences stand for … in GC…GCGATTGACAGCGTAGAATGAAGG
EXPERIMENTAL ENDPOINT: PBM binding z-score
Give bare numbers.

In [3]: df
Out[3]:
                             seq_text   value
0  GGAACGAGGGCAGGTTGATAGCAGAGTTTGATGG   0.636
1  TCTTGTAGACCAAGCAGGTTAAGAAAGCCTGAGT   0.118
2  ACTAGCAGGCCAAGGTTCACTCAAGATTAGTCCG   0.191
3  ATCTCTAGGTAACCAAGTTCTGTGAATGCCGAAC   0.109
4  CCTGCTAGGTCATGGTCAGCTAGTCTACAGTATG  -0.479

Below are 6 sequences. Give each one its PBM binding z-score.
1. CCTCGGAGGACAGAAGGTCATAGCTGTCCGCTTT
2. GCTTCTAGATCAAGGTTAAGAAAGACTAAGCTAA
3. CATACAGGTTCAGCTAGGCCAGAGTAGGGACGGC
4. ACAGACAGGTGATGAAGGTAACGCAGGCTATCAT
5. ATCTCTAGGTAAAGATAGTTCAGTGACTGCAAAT
6. ATACCAAGGTGATCGTGAGGTTGTTGATACTAAC

0.225
0.0298
0.121
0.103
0.522
0.299

Given the sequence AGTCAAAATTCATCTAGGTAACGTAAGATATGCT , what is its reported PBM binding z-score?
0.107

###

Test system: RARb:RXRa (NR concentration 270 nM, RXRa partner concentration 90 nM)
Assay: PBM binding z-score (relative to random genomic background probes); higher = stronger binding; sequences stand for … in GC…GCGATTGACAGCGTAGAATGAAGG
Record form. Attribute: PBM binding z-score. Fill in for each entry.
Give bare numbers.

Here's what some known entries look like.
                             seq_text   value
0  TCGAGTAGGTTAGTCGGTGCATTCAGCCAACATA  -0.085
1  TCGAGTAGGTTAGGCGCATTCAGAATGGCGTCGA   0.105
2  ACTAGTTGGTCTGCTGAGGTCACACACAATTCGG     3.2

List reported PBM binding z-score for each of these sequences:
1. TAGCCTAGGTCATTCAGAGGCCAGTATAGAAAGC
2. CGAACTAGGTCATTGACAGGACAGTGCATAGTAA
3. ACAGACAGGCGATGAAGGTAACTCAGGCTATCAT
4. ATCGAAAGGTCGAAGGTGAGTATTCCCACCCGAA
5. CCTTCCGGGTCAAGGTTATAGCACGGGTGGTACG
6. CGAACTTGGTCAGAACAGGACAGTGAAGGATGAT
7. TGAATGAGGTTATAAGAGCAGGGAACGTTGCAAA
8. TCTTGGAGATCAATAGAGGTTAAGAAAGTGCGCT

1. 4.09
2. 3.66
3. -0.249
4. 3.64
5. 4.1
6. 0.542
7. 1.29
8. 0.9

Provide PBM binding z-score for all items below, preserving their order.
1. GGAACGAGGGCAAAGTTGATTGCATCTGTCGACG
2. CCTTACGGGTCAAGAGGTTATAGCACGACGAGCG
3. CATTACGGGTCACTGACAGGTTATAGCATTTGGA
4. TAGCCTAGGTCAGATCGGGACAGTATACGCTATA
5. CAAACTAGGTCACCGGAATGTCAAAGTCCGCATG
6. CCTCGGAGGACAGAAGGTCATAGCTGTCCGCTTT
7. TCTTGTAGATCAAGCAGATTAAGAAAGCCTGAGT
8. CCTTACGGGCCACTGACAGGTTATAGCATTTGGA

[2.18, 4.3, 4.05, 3.11, 4.37, 3.5, -0.301, 0.69]

// each listed sequence needs a value for PBM binding z-score
1. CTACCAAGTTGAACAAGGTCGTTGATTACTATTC
2. CCTACTGGGCCATTCAGAGCTCATTGATCATATG
3. CCTGCTAGGTCAATGGTCATCTAAAGCAGCTCGC
4. CCCGACAGGTGAGAAGGTAACTCAGCCTCGATTA

1: 1.29; 2: -0.143; 3: 3.75; 4: 0.749

Please supply PBM binding z-score for each of the following items, keeping them in order.
1. CCAGACAGGTGAGAAGGTAACTCTGCCTCGATTA
2. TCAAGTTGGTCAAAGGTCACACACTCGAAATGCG
3. AGTCAAACTTCACTAGGTAACGTAAGATTCAGCT
4. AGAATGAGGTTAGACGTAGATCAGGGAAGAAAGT
5. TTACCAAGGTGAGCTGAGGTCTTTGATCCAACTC

1. 0.638
2. 5.12
3. 0.174
4. 1.21
5. 1.17

Go through the items and report each one's PBM binding z-score.
1. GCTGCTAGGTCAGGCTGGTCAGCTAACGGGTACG
2. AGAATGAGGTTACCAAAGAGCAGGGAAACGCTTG

1: 3.35; 2: 2

Return reported PBM binding z-score values for all items listed beneath this line.
1. ACGATTAGTTGAGACGAGGGCAACCGATAGGTTG
2. CTAGACAGGTGAAAGGTAACTCAGTCTGGTACGC

1: 0.555; 2: 1.22

For the 7 sequences below, give their PBM binding z-score values.
1. TCTGCTAGGTCAGTTGGTCAGCTCACGAGCTGCC
2. TCAGACAGGTGAAGGTAACTCGGGTACGCAGTCG
3. CCCTACGGGTCACGAGGTTATAGCACGACGAGCG
4. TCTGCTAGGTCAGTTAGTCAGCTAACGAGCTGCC
5. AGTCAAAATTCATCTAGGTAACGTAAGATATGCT
6. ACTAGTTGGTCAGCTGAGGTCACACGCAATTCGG
7. GCTAGCAAGCCATTTGGGTCACTCAATGACGGGC

3.18
1.46
4.36
2.89
0.168
3.53
0.979

Provide the reported PBM binding z-score of each entry below, same order.
1. ATCTCTAGGTAACCAATTTCAGTGAATGCCGAAC
2. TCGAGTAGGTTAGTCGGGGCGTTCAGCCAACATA

1. 0.458
2. 0.0731
